biological target: Gal(a1-4)Gal(b1-4)GlcNAc(b1-2)Man(a1-3)[Gal(a1-4)Gal(b1-4)GlcNAc(b1-2)Man(a1-6)]Man(b1-4)GlcNAc(b1-4)GlcNAc; assay: glycan array binding signal (z-score within array); higher = stronger binding; conditions: glycan notation: IUPAC condensed, linker removed
The entries come from a sample that favours the strongest signals as a whole.
Listed here are binders together with their documented glycan array binding signal (z-score).
Note: the reply should be a number with no unit written.

INSERT INTO results (binder, measurementlabel, readoutvalue) VALUES
  ('F17-L (Escherichia coli) (protein) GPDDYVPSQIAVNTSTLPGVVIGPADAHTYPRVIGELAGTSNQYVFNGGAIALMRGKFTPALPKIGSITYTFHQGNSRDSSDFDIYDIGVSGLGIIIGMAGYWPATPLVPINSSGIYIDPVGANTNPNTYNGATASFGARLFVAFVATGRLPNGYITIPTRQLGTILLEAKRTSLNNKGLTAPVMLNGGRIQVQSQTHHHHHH', 'glycan array binding signal (z-score)', 22.9),
  ('PA-IL (Pseudomonas aeruginosa), Q05097 (protein) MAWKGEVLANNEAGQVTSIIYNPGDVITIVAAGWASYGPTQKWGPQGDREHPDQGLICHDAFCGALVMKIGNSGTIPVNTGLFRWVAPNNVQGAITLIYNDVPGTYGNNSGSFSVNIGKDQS', 'glycan array binding signal (z-score)', 8.23),
  ('Pwp3 (Candida glabrata) (protein) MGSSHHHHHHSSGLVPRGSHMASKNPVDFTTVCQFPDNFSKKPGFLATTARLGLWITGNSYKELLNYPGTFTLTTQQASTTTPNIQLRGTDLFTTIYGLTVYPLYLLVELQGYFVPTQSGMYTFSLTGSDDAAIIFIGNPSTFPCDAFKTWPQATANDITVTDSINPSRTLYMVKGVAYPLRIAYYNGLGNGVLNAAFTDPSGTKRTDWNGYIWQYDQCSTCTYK', 'glycan array binding signal (z-score)', -0.343),
  ('PfulAvr4 2 (Pseudocercospora fuligena) (protein) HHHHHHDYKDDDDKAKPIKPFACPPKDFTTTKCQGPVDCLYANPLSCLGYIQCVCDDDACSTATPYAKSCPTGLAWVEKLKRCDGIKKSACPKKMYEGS', 'glycan array binding signal (z-score)', 1.43),
  ('cupB6 (Pseudomonas aeruginosa), Q02SP7 (protein) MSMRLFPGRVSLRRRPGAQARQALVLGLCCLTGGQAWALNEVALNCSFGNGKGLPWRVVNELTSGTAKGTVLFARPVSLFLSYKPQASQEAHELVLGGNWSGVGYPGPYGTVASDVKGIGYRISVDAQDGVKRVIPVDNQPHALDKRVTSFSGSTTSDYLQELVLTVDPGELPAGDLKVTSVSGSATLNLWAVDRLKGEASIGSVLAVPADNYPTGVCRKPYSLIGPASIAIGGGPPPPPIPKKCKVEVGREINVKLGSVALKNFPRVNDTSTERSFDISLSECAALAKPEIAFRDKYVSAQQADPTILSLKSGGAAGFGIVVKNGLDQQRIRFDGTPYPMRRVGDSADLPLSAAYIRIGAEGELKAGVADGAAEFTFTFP', 'glycan array binding signal (z-score)', 0.472);

Moving on to the next binder.
Give the measured glycan array binding signal (z-score) of PLU (Photorhabdus luminiscence) (protein) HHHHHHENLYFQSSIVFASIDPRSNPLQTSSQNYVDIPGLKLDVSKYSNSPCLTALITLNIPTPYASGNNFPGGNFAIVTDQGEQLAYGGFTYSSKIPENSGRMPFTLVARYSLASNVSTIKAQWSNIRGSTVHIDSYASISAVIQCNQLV .
-0.137
